- tgt: hCMV UL128, UL130 and UL131A co-expressed in HEK293T cells (human cytomegalovirus, UniProt P16837 1-171; P16772 1-214)
- Sequence (P16837 whole entry, chain 1 of 2): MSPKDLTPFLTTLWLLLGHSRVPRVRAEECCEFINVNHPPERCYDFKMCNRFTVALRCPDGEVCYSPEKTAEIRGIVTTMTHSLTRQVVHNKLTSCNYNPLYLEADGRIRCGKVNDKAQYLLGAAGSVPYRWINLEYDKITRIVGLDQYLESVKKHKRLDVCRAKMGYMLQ
- Sequence (P16772 whole entry, chain 2 of 2): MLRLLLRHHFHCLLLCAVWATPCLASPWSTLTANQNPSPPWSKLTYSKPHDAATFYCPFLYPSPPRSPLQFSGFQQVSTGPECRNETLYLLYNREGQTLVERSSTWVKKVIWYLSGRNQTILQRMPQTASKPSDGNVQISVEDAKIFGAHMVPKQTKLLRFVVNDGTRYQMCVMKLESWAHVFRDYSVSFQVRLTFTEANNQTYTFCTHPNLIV
- testProtocol: cell-based or functional assay
assayEndpoint: 90% Neutralization MRC-9 (hCMV VR1814)

• 7B13 (antibody, V domains shown, human IgG mAb) VH: QVQLVESGGGVVQPGGSLRLSCAASGFSFSNYGMHWVRQAPGKGLEWVALIPSDGNYQYYTDSVKGRFTVSRDNSRNTLYLQMKSLRAEDTARYHCAHLGGGLFDFWGQGTLVTVSS VL: QSALNQPRSVSGSPGQSVSISCTGSSSDVGGYEFVSWYQHHPGKAPKLIIYDVDKRPSGVPDRFSGSRSGDTASLTISGLQAEDEADYYCYSSADTWVFGGGTKLTVL = > 10 µg/mL
• 7I13 (antibody, V domains shown, human IgG mAb) VH: QVQLVESGGGVVQPGRSLRLSCAASGFTFSNYGMHWVRQGPGKGLEWVAVISYDASSKYYTDSVQGRFTISRDNSKNTLFLQMNSLRGEDTAVYYCAKALRYLDWFLSDPFDYWGQGTLVTVSS VL: EIVLTQSPGTLSLSPGERATLSCRASQSVSSDFLAWYQQKPGQAPRLLIYGASSRATGIPDRFSGSGSGTDFTLTISRLEPEDFAVYYCQQYAASPPFGQGTRLEIK = > 10 µg/mL
• 8C15 (antibody, V domains shown, human IgG mAb; also called 8C15-biotin) VH: QVQLQESGPGLVKPSETLSLTCTVSGGSIRSYYWSWIRQPPGKGLEWIGHIYYSGNTNYSPSLQSRVTISLDTPKNQFSLRLSSVTAADTAVYYCARHDVIVVRGVFDVWGQGTVVTVSS VL: QSALTQPASVSGSPGQSITISCTGTSSDIGTYNLVSWYQQHPGKAPKVLIYDGSKRPSGVSSRFSASKSGNTASLTISGLQAEDETDYYCCSYAGTSDFFVVFGGGTKLTVL = > 10 µg/mL
